system: Pseudomonas aeruginosa; assay: Antimicrobial activity against Pseudomonas aeruginosa isolate K44-24 producing metallo-beta-lactamase IMP14 by Etest; assay type: functional
Recorded Endpoint: MIC (µg/mL)
Give your result in µg/mL as a bare value.

Supply measured MIC of `NCC[C@H](O)C(=O)N[C@@H]1C[C@H](N)[C@@H](O[C@H]2O[C@H](CN)[C@@H](O)[C@H](O)[C@H]2O)[C@H](O)[C@H]1O[C@H]1O[C@H](CO)[C@@H](O)[C@H](N)[C@H]1O` in your reply. 32

Supply measured MIC of `CC(C)(O/N=C(\C(=O)N[C@@H]1C(=O)N2C(C(=O)[O-])=C(C[n+]3ccccc3)CS[C@H]12)c1csc(N)n1)C(=O)O` in your reply. 64

Supply measured MIC of `O=C(O)c1cn(C2CC2)c2cc(N3CCNCC3)c(F)cc2c1=O` in your reply. 16

Supply measured MIC of CO/N=C(\C(=O)N[C@@H]1C(=O)N2C(C(=O)[O-])=C(C[N+]3(C)CCCC3)CS[C@H]12)c1csc(N)n1 [CEFEPIME] in your reply. 32

Supply measured MIC of `NC[C@H]1O[C@H](O[C@H]2[C@H](O)[C@@H](O[C@H]3O[C@H](CO)[C@@H](O)[C@H](N)[C@H]3O)[C@H](N)C[C@@H]2N)[C@H](N)C[C@@H]1O` in your reply. 32

====

Consider the following compounds; for each one, report its MIC.
test system: Pseudomonas aeruginosa; assay: Antimicrobial activity against Pseudomonas aeruginosa isolate BU-43038 producing metallo-beta-lactamase VIM2 by Etest; format: functional
Give your result in µg/mL as a bare value.

Supply measured MIC of O=C(O)c1cn(C2CC2)c2cc(N3CCNCC3)c(F)cc2c1=O [CIPROFLOXACIN] in your reply. 16

Supply measured MIC of CO/N=C(\C(=O)N[C@@H]1C(=O)N2C(C(=O)[O-])=C(C[N+]3(C)CCCC3)CS[C@H]12)c1csc(N)n1 [CEFEPIME] in your reply. 32

Supply measured MIC of CC(C)(O/N=C(\C(=O)N[C@@H]1C(=O)N2C(C(=O)[O-])=C(C[n+]3ccccc3)CS[C@H]12)c1csc(N)n1)C(=O)O [CEFTAZIDIME] in your reply. 64

Supply measured MIC of NC[C@H]1O[C@H](O[C@H]2[C@H](O)[C@@H](O[C@H]3O[C@H](CO)[C@@H](O)[C@H](N)[C@H]3O)[C@H](N)C[C@@H]2N)[C@H](N)C[C@@H]1O [TOBRAMYCIN] in your reply. 32

Supply measured MIC of NCC[C@H](O)C(=O)N[C@@H]1C[C@H](N)[C@@H](O[C@H]2O[C@H](CN)[C@@H](O)[C@H](O)[C@H]2O)[C@H](O)[C@H]1O[C@H]1O[C@H](CO)[C@@H](O)[C@H](N)[C@H]1O [AMIKACIN] in your reply. 32
